# assayed system: Carbonic anhydrase 7 (Homo sapiens) (UniProt P43166)
# Sequence (P43166 whole entry): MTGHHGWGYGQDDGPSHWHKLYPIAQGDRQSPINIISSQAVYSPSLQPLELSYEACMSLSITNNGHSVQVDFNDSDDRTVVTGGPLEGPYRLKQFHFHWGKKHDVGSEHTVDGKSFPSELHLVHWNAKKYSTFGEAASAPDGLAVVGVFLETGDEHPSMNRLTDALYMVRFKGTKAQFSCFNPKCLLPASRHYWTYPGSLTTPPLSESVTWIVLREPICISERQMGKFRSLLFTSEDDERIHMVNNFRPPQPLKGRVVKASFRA
endpoint: Ki

Use the examples below as a reference point.
{"columns": ["molecule", "Ki"],
 "data": [
  ["CC(C)Cc1ccc(C(C)C(=O)OCCOc2ccc3oc(=O)ccc3c2)cc1 (racemic)", "> 10 µM"],
  ["CC(C)Cc1ccc(C(C)C(=O)OCCOc2ccc3ccc(=O)oc3c2)cc1 (racemic)", "> 10 µM"],
  ["CC(C(=O)OCCOc1ccc2oc(=O)ccc2c1)c1cccc(C(=O)c2ccccc2)c1 (racemic)", "> 10 µM"]
]}

Challenge: Data request, read-out Ki, for CC(C(=O)OCCOc1ccc2ccc(=O)oc2c1)c1cccc(C(=O)c2ccccc2)c1 (racemic)
Response given: > 10 µM
